// provenance: patent US11104675B2

# MEASUREMENT TARGET: PTPN11-E76K mutant enzyme (Homo sapiens (Human), UniProt Q06124, E76K)
# Sequence (Q06124 whole entry E76K): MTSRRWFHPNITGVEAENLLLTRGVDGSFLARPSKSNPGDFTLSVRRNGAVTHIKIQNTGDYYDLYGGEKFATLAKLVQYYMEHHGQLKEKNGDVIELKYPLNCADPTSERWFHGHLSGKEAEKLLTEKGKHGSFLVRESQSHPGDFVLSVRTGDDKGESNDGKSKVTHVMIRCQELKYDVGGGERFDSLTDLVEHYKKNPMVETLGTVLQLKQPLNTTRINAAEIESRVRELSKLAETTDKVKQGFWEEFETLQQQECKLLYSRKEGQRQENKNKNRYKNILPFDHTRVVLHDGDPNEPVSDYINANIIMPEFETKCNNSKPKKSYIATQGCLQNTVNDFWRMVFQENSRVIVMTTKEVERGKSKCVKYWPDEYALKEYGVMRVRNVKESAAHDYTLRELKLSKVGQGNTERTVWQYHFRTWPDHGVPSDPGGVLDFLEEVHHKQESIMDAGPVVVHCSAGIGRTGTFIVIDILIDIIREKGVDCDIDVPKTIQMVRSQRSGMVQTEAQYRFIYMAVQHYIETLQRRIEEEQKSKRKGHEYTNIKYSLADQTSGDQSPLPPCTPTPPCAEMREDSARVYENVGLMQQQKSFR
# RUN DESCRIPTION: PTPN11 Enzymatic Assay (DiFMUP phosphatase activity)
# CONDITIONS USED: full length PTPN11-E76K, DiFMUP substrate; read-out: IC50, inhibition of PTPN11-E76K mutant enzyme
OBSERVED PROPERTY: IC50 (nM)

compound="Cc1cccc(-n2c(C)nc(N3CCC4(CC3)CO[C@@H](C)[C@H]4N)cc2=O)c1Cl (atropisomer, axis not shown; (Ra)) [Example 13b]" observed_property=IC50 assay_value=186

a = Cc1nc(N2CCC3(CC2)CO[C@@H](C)[C@H]3N)cc(=O)n1-c1cccc(C(F)(F)F)c1Cl (atropisomer, axis not shown; (Ra)) [Example 14b]
b = CNC(=O)c1ccc(Oc2ccc(-n3c(C)nc(N4CCC5(CC4)CO[C@@H](C)[C@H]5N)c(C)c3=O)c(Cl)c2Cl)cc1 (atropisomer, axis not shown; (Ra)) [Example 19b]
Of the two listed items, which has the higher IC50? First: a Second: b Write the label of whichever entry you select.
a
